Every entry's value here was drawn from ChEMBL document CHEMBL4308906.

# Lookup of reported activity at 0.25 h, 1 µM keyed by entry
target: CYP1A1 (Homo sapiens, UniProt P04798); assay: Inhibition of human recombinant CYP1A1 using 7-ethoxyresorufin as substrate assessed as percent enzyme activity at 1 uM after 15 mins in presence of NADPH by EROD assay relative to control; format: ADME; set-up: scale not given: the % may be the effect or the level left; settings: recombinant CYP1A1, probe 7-ethoxyresorufin, read-out: Activity
Sequence (P04798 whole entry): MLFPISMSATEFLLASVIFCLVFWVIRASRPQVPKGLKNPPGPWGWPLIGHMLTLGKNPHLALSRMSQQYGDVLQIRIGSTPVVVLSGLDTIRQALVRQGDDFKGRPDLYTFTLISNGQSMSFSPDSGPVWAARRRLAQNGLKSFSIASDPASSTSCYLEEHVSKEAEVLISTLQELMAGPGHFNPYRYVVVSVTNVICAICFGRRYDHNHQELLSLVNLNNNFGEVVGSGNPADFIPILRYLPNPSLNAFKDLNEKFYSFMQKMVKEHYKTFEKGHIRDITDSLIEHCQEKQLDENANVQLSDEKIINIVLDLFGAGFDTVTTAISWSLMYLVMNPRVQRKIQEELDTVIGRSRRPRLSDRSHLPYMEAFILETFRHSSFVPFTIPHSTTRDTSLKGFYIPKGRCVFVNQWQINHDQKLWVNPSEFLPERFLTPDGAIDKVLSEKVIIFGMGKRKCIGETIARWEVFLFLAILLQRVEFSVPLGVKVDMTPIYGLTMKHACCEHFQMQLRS
Numbers only here, please. The scale is %.

State the recorded activity at 0.25 h, 1 µM for this entry: CS(=O)(=O)OCC1CCC(c2cc(=O)c3ccc4ccccc4c3o2)CC1 (racemic) 78.1

State the recorded activity at 0.25 h, 1 µM for this entry: C#C[C@H]1CC[C@H](c2cc(=O)c3ccc4ccccc4c3o2)CC1 0.5

State the recorded activity at 0.25 h, 1 µM for this entry: CC(=O)SC1CCCC(c2cc(=O)c3ccc4ccccc4c3o2)C1 (mixture of isomers) 31.7

State the recorded activity at 0.25 h, 1 µM for this entry: CS(=O)(=O)O[C@H]1CC[C@H](c2cc(=O)c3ccc4ccccc4c3o2)CC1 69.9

---

target: Cytochrome P450 1B1 (Homo sapiens, UniProt Q16678); assay: Inhibition of human recombinant CYP1B1 using 7-ethoxyresorufin as substrate after 30 mins in presence of NADPH by EROD assay
Sequence (Q16678 whole entry): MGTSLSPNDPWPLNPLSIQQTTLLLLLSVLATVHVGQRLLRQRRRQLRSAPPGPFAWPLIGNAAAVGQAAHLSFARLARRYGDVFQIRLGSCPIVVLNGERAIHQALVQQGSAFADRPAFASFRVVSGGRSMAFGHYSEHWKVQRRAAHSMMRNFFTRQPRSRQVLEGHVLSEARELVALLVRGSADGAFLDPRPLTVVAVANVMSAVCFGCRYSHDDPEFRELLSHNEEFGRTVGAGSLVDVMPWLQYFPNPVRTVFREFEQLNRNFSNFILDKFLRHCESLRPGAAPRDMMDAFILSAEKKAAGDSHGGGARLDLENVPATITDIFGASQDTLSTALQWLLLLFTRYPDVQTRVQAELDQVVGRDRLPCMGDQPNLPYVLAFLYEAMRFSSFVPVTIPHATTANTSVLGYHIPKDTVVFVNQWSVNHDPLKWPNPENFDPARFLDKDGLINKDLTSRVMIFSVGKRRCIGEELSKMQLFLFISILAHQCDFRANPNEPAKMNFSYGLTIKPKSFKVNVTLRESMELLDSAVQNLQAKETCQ
Measurement Type: pIC50
To interpret pIC50, take it as minus log10 of a concentration measured in moles per litre.

Solved cases (10 shown):
                                   molecule  measurement_type  readout_value
0      O=c1cc(-c2ccc(O)cc2)oc2c1ccc1ccccc12             pIC50           7.36
1  [N-]=[N+]=N[C@H]1CC[C@@H](c2cc(=O)c3ccc4ccccc4c3o2)CC1             pIC50           8.36
2  [N-]=[N+]=Nc1cccc(-c2cc(=O)c3ccc4ccccc4c3o2)c1             pIC50           8.74
3          O=c1cc(C2CCCCC2)oc2c1ccc1ccccc12             pIC50           6.27
4  O=c1cc(C2CCCC(S)C2)oc2c1ccc1ccccc12 (mixture of isomers)             pIC50           7.18
5  [N-]=[N+]=NC1CCCC(c2cc(=O)c3ccc4ccccc4c3o2)C1 (mixture of isomers)             pIC50           7.04
6  C=C=C[C@H]1CC[C@@H](c2cc(=O)c3ccc4ccccc4c3o2)CC1             pIC50           7.17
7  [N-]=[N+]=NCC1CCC(c2cc(=O)c3ccc4ccccc4c3o2)CC1 (mixture of isomers)             pIC50           7.63
8  CC(=O)S[C@H]1CC[C@H](c2cc(=O)c3ccc4ccccc4c3o2)CC1             pIC50           7.53
9  O=c1cc([C@H]2CC[C@H](S)CC2)oc2c1ccc1ccccc12             pIC50           7.39

State the recorded pIC50 for this entry: [N-]=[N+]=Nc1ccc(-c2cc(=O)c3ccc4ccccc4c3o2)cc1 8.59

State the recorded pIC50 for this entry: [N-]=[N+]=N[C@H]1CC[C@H](c2cc(=O)c3ccc4ccccc4c3o2)CC1 6.87

---

# Lookup of reported activity at 0.25 h, 1 µM keyed by entry
target: CYP1A1 (Homo sapiens, UniProt P04798); assay: Inhibition of human recombinant CYP1A1 using 7-ethoxyresorufin as substrate assessed as percent enzyme activity at 1 uM after 15 mins in presence of NADPH by EROD assay relative to control; type: ADME; parameters: scale not given: the % may be the effect or the level left; conditions: recombinant CYP1A1, probe 7-ethoxyresorufin, read-out: Activity

Solved cases (8 shown):
>>> print(df.to_string())
                                   compound  readout_value
0  CS(=O)(=O)O[C@@H]1CCC[C@@H](c2cc(=O)c3ccc4ccccc4c3o2)C1 (relative stereo)          66.5%
1  CC1CCC(c2cc(=O)c3ccc4ccccc4c3o2)CC1 (mixture of isomers)          50.2%
2      O=c1cc(-c2ccc(O)cc2)oc2c1ccc1ccccc12           6.3%
3  C=C=C[C@H]1CC[C@H](c2cc(=O)c3ccc4ccccc4c3o2)CC1             3%
4  N[C@H]1CC[C@@H](c2cc(=O)c3ccc4ccccc4c3o2)CC1          73.7%
5  CN(C)C(=S)Oc1cccc(-c2cc(=O)c3ccc4ccccc4c3o2)c1           3.1%
6      Nc1cccc(-c2cc(=O)c3ccc4ccccc4c3o2)c1           7.6%
7          O=c1cc(C2CCCCC2)oc2c1ccc1ccccc12          51.5%

State the recorded activity at 0.25 h, 1 µM for this entry: [N-]=[N+]=Nc1cccc(-c2cc(=O)c3ccc4ccccc4c3o2)c1 1.4%

State the recorded activity at 0.25 h, 1 µM for this entry: O=c1cc(-c2ccccc2)oc2c1ccc1ccccc12 0.4%

---

target: CYP1A1 (Homo sapiens, UniProt P04798); experiment: Inhibition of human recombinant CYP1A1 using 7-ethoxyresorufin as substrate assessed as percent enzyme activity at 1 uM after 15 mins in presence of NADPH by EROD assay relative to control; format: ADME; set-up: scale not given: the % may be the effect or the level left; conditions: recombinant CYP1A1, probe 7-ethoxyresorufin, read-out: Activity
Exam item: assign Yes to entries whose activity at 0.25 h, 1 µM is below 8% and No to entries at or above 8%. Note that a value of exactly 8% receives No.

Some solved entries appear below for comparison.
>>> print(df.to_string())
                                item_smiles                          target_system  group
0  C#C[C@H]1CC[C@@H](c2cc(=O)c3ccc4ccccc4c3o2)CC1  CYP1A1 (Homo sapiens, UniProt P04798)     No
1  CN(C)C(=S)Oc1ccc(-c2cc(=O)c3ccc4ccccc4c3o2)cc1  CYP1A1 (Homo sapiens, UniProt P04798)     No
2  O=c1cc([C@H]2CC[C@H](O)CC2)oc2c1ccc1ccccc12  CYP1A1 (Homo sapiens, UniProt P04798)     No
3  O=c1cc(C23CC4CC(CC(C4)C2)C3)oc2c1ccc1ccccc12  CYP1A1 (Homo sapiens, UniProt P04798)     No

Continue with the next compound.
Lab log: compare recorded activity at 0.25 h, 1 µM with 8%; is it strictly lower for O=c1cc([C@H]2CC[C@@H](S)CC2)oc2c1ccc1ccccc12 ? Yes

---

target: Cytochrome P450 1A1 (Homo sapiens, UniProt P04798); assay: Inhibition of human recombinant CYP1A1 using 7-ethoxyresorufin as substrate after 15 mins in presence of NADPH by EROD assay
# Lookup of reported IC50 keyed by entry

Solved cases (3 shown):
>>> print(df.to_string())
                                item_smiles                             target_system  measurement_type  readout_value
0  [N-]=[N+]=Nc1cccc(-c2cc(=O)c3ccc4ccccc4c3o2)c1  Cytochrome P450 1A1 (Homo sapiens, UniProt P04798)              IC50        27.1 nM
1      O=c1cc(-c2ccc(O)cc2)oc2c1ccc1ccccc12  Cytochrome P450 1A1 (Homo sapiens, UniProt P04798)              IC50          43 nM
2  C=C=C[C@H]1CC[C@H](c2cc(=O)c3ccc4ccccc4c3o2)CC1  Cytochrome P450 1A1 (Homo sapiens, UniProt P04798)              IC50        13.6 nM

Now for a further compound.
State the recorded IC50 for this entry: CC(=O)S[C@H]1CC[C@@H](c2cc(=O)c3ccc4ccccc4c3o2)CC1 65 nM

---

# Lookup of reported solubility thermodynamic keyed by entry
assay: Aqueous solubility of compound in 9:1 PBS/ethanol buffer by shake flask method; assay type: physicochemical

Solved cases (3 shown):
>>> print(df.to_string())
                                   molecule          measurement_type  readout_value
0          O=c1cc(C2CCCCC2)oc2c1ccc1ccccc12  solubility thermodynamic        9.65 µM
1  O=c1cc(-c2ccccc2)oc2c1ccc1ccccc12 [ALPHA-NAPHTHOFLAVONE]  solubility thermodynamic        2.63 µM
2  [N-]=[N+]=N[C@H]1CC[C@@H](c2cc(=O)c3ccc4ccccc4c3o2)CC1  solubility thermodynamic        2.67 µM

Now for a further molecule.
State the recorded solubility thermodynamic for this entry: [N-]=[N+]=Nc1ccc(-c2cc(=O)c3ccc4ccccc4c3o2)cc1 < 1 µM
